target or system: Human pyruvate kinase R (PKR) (Homo sapiens, UniProt P30613)
Construct: Human pyruvate kinase R (PKR), residues 14-574; 6x-His (N, cleaved yes); 8x-Arg (N, cleaved yes); SUMO (N, cleaved yes); host or cells: E. coli
Sequence (P30613 14-574): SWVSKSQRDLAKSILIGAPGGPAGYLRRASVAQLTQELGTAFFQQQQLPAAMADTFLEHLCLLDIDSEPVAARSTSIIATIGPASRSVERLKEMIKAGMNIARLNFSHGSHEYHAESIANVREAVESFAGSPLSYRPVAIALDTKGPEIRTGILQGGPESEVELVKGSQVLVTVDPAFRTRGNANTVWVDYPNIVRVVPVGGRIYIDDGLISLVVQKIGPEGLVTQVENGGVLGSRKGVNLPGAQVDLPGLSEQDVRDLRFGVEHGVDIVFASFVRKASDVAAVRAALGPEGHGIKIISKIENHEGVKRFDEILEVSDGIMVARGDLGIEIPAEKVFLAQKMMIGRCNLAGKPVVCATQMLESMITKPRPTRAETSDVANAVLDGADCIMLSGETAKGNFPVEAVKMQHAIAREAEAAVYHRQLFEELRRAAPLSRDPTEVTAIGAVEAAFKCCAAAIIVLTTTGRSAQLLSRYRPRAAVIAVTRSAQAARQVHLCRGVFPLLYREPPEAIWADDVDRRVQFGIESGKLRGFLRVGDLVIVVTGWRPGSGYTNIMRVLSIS
assay explanation: Biochemical assay for activation of pyruvate kinase R (Kinase-Glo luminescence measurement of ATP generation)
study conditions: maximal activation level relative to the activation level achieved by the literature compound AG-348 @ 10 μM
metric name: Emax (%)
Write the answer as a number in %, unit excluded.

Reference set (8 entries):
molecule: O=C(NCc1ncnn1CC1CCOCC1)NCc1ncnn1-c1ccc2cccnc2c1 [Compound 15]
target or system: Human pyruvate kinase R (PKR) (Homo sapiens, UniProt P30613)
unit tag: %
Emax: 57
--
molecule: Cc1ccc(-n2nnnc2CNC(=O)NCc2nnnn2-c2ccc(C)c(F)c2)cc1F [Compound 58]
target or system: Human pyruvate kinase R (PKR) (Homo sapiens, UniProt P30613)
unit tag: %
Emax: 88
--
molecule: Cc1nc(CNC(=O)NCc2ncnn2-c2cnc3cccnc3c2)n(-c2ccc(Cl)c(F)c2)n1 [Compound 43]
target or system: Human pyruvate kinase R (PKR) (Homo sapiens, UniProt P30613)
unit tag: %
Emax: 84
--
molecule: Cc1nc(CNC(=O)NCc2ncnn2-c2cc(F)c3cccnc3c2)n(-c2ccc(Cl)c(F)c2)n1 [Compound 47]
target or system: Human pyruvate kinase R (PKR) (Homo sapiens, UniProt P30613)
unit tag: %
Emax: 85
--
molecule: O=C(NCc1ncnn1-c1ccc(O)nc1)NCc1ncnn1-c1ccc(Cl)c(F)c1 [Compound 119]
target or system: Human pyruvate kinase R (PKR) (Homo sapiens, UniProt P30613)
unit tag: %
Emax: 31
--
molecule: COCCc1nc(CNC(=O)NCc2ncnn2-c2ccc3cccnc3c2)n(-c2ccc(Cl)c(F)c2)n1 [Compound 97]
target or system: Human pyruvate kinase R (PKR) (Homo sapiens, UniProt P30613)
unit tag: %
Emax: 92
--
molecule: O=C(NCc1nnnn1-c1ccc(C(F)(F)F)cc1)NCc1nnnn1-c1ccc(C(F)(F)F)cc1 [Compound 115]
target or system: Human pyruvate kinase R (PKR) (Homo sapiens, UniProt P30613)
unit tag: %
Emax: 148
--
molecule: Cc1nc(CNC(=O)NCc2nc(CCO)nn2-c2ccc(Cl)c(F)c2)n(-c2ccc3cccnc3c2)n1 [Compound 94]
target or system: Human pyruvate kinase R (PKR) (Homo sapiens, UniProt P30613)
unit tag: %
Emax: 87

Requested field: Emax. Item: Cc1nc(CNC(=O)NCc2ncnn2-c2ccc(Cl)c(F)c2)n(-c2ccc3cccnc3c2)n1 [Compound 85]
67

Then this molecule: COc1ccc(-n2ncnc2CNC(=O)NCc2nc(C)nn2-c2ccc(Cl)c(F)c2)nc1 [Compound 130]
84

Likewise for Cc1nc(CNC(=O)NCc2nc(C)nn2-c2cnc3ccccc3c2)n(-c2ccc(Cl)c(F)c2)n1 [Compound 138] ?
129

What would you report for CCN(Cc1ncnn1-c1ccc(Cl)c(F)c1)C(=O)NCc1ncnn1-c1ccc(O)nc1 [Compound 121] ?
47
